Test: Stability in buffer solution at 37 degC after 19 hrs
Assay type: physicochemical
Conditions: read-out: Stability
Experimental Readout: remaining at 19 h (%)

> print(dat)
                                smiles.text  experimental.readout  measured.result
1  CC(=O)N[C@H]1[C@H]([C@@H](O)[C@H](O)CNC(=O)c2ccc(Cl)cc2)O[C@@](OCc2cccc(F)c2F)(C(=O)O)C[C@@H]1O     remaining at 19 h               95
2  O=C(CF)N[C@H]1[C@H]([C@@H](O)[C@H](O)CNC(=O)c2ccc(Cl)cc2)O[C@@](OCc2cccc(F)c2F)(C(=O)O)C[C@@H]1O     remaining at 19 h               95
